Please consider the recorded Ki for Carbonic anhydrase 5A, mitochondrial (Homo sapiens, UniProt P35218) in what follows.
The answer is to be given in µM; state only the numeric part.

COc1ccc2oc(=O)c(C(=O)O)cc2c1 :: 8.7
CCCCOc1ccc2ccc(=O)oc2c1 :: 9

Now let's try a different one.
Enquiry: Given the entry CCOC(=O)c1cc2cc(CO)ccc2oc1=O , report its measured Ki.
Return: 3

----------
Reported pKi values, Carbonic anhydrase 3 (Homo sapiens, UniProt P07451).
Formally, pKi is defined as -log10 of the concentration c, with c in mol/L.

Reference set (2 entries):
O=c1ccc2ccccc2o1 [COUMARIN] :: 5.25
CCOc1ccc2ccc(=O)oc2c1 :: 4.54

Enquiry: // pKi lookup, key: CCOC(=O)c1cc2ccc(OC)cc2oc1=O
Return: 4.14

----------
These records show Ki for Carbonic anhydrase 7 (Homo sapiens, UniProt P43166).
Provide the reading as a plain figure in µM.

Known Ki results, listed for orientation:
O=c1ccc2ccccc2o1 [COUMARIN] :: 3.3
O=C(O)c1cc2ccccc2oc1=O [COUMARIN-3-CARBOXYLIC ACID] :: 5.1

Read the next record carefully.
Enquiry: Reported Ki for Carbonic anhydrase 7 (Homo sapiens, UniProt P43166), given COc1ccc2ccc(=O)oc2c1 [HERNIARIN] ?
Return: 9.1

----------
Hi! I'm sharing some Ki results obtained with Carbonic anhydrase 5B, mitochondrial (Homo sapiens, UniProt Q9Y2D0).
Sequence (Q9Y2D0 whole entry): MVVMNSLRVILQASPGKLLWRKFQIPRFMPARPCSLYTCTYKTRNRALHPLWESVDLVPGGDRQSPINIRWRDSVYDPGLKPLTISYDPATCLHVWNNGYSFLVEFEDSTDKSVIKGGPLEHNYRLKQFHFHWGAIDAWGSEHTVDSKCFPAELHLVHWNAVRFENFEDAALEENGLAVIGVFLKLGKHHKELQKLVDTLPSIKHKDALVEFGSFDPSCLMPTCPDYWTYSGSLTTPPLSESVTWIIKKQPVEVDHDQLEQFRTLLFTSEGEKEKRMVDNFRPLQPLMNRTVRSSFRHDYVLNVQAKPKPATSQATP
Numbers only; they are read as µM.

COc1ccc2oc(=O)c(C(=O)O)cc2c1 :: 7.6

Field: next compound
Enquiry: Field request: Ki | item: CCOc1ccc2ccc(=O)oc2c1
Return: 60.9

----------
Record set of pKi for target or system Carbonic anhydrase 15 (Mus musculus, UniProt Q99N23).
By convention, pKi is the negative base-10 log of a molar concentration.

The cases that follow already have their pKi on record.
O=C(O)c1cc2cc(CO)ccc2oc1=O :: 5.07
O=C(O)c1cc2ccccc2sc1=O :: 5.32
CCCCOc1ccc2ccc(=O)oc2c1 :: 4.19

Here is the next item to consider.
Enquiry: Give the measured pKi of O=c1ccc2ccc(CCc3ccccc3)cc2o1 .
Return: 4.35

----------
# pKi per entry for Carbonic anhydrase 9 (Homo sapiens, UniProt Q16790)
The quantity pKi is defined as the negative base-10 logarithm of the molar concentration.

COC(=O)c1cc2cc(CO)ccc2oc1=O :: 5.06

Enquiry: Return reported pKi; argument: CCCCOc1ccc2ccc(=O)oc2c1 [7-BUTOXYCOUMARIN]
Return: 5.31

Enquiry: For O=c1ccc2cc(C[N+]34CN5CN(CN(C5)C3)C4)ccc2o1 then?
Return: 5.52

Enquiry: How about CCOC(=O)c1cc2cc(CO)ccc2oc1=O ?
Return: 5.21

Enquiry: Repeat with Cc1ccc2oc(=O)c(C(=O)O)cc2c1
Return: 7.32

Enquiry: // next record O=c1ccc2cc(CO)ccc2o1
Return: 5.08

----------
# system name: Carbonic anhydrase 13 (Mus musculus, UniProt Q9D6N1)
# Sequence (Q9D6N1 whole entry): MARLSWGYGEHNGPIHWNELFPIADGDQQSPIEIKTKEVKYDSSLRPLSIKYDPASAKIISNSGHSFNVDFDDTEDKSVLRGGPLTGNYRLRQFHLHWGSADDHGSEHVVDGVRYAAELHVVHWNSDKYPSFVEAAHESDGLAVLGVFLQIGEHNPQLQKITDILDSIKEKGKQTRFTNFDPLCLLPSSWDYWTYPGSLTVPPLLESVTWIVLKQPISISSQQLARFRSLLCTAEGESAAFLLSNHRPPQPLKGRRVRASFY
pKi: −log10 of the molar value.
pKi of 5 or higher: Condition met. Under 5: Condition not met.

# count of solved cases: 4
O=C(O)c1cc2cc(CO)ccc2oc1=O :: Condition met
CCCCOc1ccc2ccc(=O)oc2c1 [7-BUTOXYCOUMARIN] :: Condition met
CCOc1ccc2ccc(=O)oc2c1 :: Condition not met
O=C(O)c1cc2ccccc2oc1=O [COUMARIN-3-CARBOXYLIC ACID] :: Condition not met

Shift focus to the following entry.
Enquiry: Does pKi meet or surpass 5 for O=C(O)c1cc2ccccc2sc1=O ?
Return: Condition met
